System Under Test: Toll-like receptor 9 (Homo sapiens)
Sequence (Q9NR96 whole entry): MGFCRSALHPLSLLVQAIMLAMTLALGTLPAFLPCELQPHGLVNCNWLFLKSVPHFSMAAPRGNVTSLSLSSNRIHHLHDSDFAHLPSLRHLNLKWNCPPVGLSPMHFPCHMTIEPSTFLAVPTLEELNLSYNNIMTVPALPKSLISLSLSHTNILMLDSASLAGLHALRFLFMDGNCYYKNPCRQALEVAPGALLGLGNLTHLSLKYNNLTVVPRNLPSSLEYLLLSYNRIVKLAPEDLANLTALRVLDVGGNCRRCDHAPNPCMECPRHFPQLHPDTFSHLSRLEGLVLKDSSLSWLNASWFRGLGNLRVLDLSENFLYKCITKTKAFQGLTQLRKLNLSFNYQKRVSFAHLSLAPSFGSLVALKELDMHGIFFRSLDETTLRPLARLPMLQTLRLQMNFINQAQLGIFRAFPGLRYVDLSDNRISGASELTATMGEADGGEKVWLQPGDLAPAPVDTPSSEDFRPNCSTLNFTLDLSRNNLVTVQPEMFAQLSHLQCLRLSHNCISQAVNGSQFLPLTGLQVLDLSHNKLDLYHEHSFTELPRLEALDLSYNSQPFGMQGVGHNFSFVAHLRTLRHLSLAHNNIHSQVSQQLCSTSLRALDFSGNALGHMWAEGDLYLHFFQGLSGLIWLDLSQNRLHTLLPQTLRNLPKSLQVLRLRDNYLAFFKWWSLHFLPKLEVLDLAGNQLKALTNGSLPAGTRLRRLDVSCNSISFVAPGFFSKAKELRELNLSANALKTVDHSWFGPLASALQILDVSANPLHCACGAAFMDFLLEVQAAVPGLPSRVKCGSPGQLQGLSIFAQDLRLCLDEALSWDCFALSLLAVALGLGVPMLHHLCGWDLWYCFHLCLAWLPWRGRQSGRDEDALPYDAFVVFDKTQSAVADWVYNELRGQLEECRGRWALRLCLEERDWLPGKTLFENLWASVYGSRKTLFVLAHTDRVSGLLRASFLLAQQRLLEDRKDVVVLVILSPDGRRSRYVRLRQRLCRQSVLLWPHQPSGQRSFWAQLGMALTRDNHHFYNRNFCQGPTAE
Assay Protocol: TLR7/8/9 Inhibition Reporter Assays
pIC50: −log10 of the molar value.
Quantity Name: pIC50

Cc1c(-c2[nH]c3cnc(C4CCC(N5CC(CO)(CO)C5)CC4)c(F)c3c2C(C)C)cn2ncnc2c1C (centres undefined) :: 5.69

a: CNC(=O)CN1CCN(c2cc3c(C(C)C)c(-c4cc(OC)c5ncnn5c4)[nH]c3cn2)CC1
b: CNCC(=O)N1CCN(c2cc3c(C(C)C)c(-c4cc(OC)c5ncnn5c4)[nH]c3cn2)CC1
Lower value of pIC50 belongs to which: a or b ? Selection: enter the item's label.
b

* * *

System Under Test: Toll-like receptor 8 (Homo sapiens, UniProt Q9NR97)
Sequence (Q9NR97 whole entry): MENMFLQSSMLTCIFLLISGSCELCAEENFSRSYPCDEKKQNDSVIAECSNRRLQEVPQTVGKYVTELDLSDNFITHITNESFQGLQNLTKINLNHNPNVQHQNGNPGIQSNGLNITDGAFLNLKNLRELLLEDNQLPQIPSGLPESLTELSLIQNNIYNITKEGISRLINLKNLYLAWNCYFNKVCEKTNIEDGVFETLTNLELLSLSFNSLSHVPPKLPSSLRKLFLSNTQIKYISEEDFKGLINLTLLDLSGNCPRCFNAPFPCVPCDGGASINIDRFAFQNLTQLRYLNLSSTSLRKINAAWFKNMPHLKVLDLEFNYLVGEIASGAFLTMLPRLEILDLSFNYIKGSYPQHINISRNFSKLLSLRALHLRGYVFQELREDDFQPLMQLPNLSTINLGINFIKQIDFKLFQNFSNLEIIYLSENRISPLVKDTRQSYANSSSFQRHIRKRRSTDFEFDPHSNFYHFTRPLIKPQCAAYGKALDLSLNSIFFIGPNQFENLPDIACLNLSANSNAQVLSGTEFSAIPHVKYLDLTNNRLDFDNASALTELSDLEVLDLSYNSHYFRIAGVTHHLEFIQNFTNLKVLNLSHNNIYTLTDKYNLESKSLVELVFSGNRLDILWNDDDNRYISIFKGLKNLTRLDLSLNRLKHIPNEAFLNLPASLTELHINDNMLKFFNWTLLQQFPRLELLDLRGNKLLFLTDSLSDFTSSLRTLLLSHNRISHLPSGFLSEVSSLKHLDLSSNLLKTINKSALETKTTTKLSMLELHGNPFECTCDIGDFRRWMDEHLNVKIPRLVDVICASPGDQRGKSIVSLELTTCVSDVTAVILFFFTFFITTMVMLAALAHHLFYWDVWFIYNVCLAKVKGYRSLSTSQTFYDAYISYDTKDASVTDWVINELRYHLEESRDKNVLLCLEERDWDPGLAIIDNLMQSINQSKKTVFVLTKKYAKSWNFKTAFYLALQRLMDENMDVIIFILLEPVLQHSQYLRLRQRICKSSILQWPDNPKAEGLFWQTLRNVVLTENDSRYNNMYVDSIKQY
Assay Protocol: TLR7/8/9 Inhibition Reporter Assays
pIC50: −log10 of the molar value.
Quantity Name: pIC50

CNC(=O)CN1CCN(c2cc3c(C(C)C)c(-c4cc(OC)c5ncnn5c4)[nH]c3cn2)CC1 :: 8.07

A: COc1cc(-c2[nH]c3cnc(N4CCN(C5COC5)CC4)cc3c2C(C)C)cn2ncnc12
B: Cc1c(-c2[nH]c3cnc(C4CCC(N5CC(CO)(CO)C5)CC4)c(F)c3c2C(C)C)cn2ncnc2c1C (centres undefined)
C: CNCC(=O)N1CCN(c2cc3c(C(C)C)c(-c4cc(OC)c5ncnn5c4)[nH]c3cn2)CC1
Hi! Can you put these in order of pIC50, lowest number first? Please respond by ranking the labels in the order requested.
C, B, A
(C: 7.24, B: 7.64, A: 7.92)

* * *

System Under Test: Toll-like receptor 7 (Homo sapiens, UniProt Q9NYK1)
Sequence (Q9NYK1 whole entry): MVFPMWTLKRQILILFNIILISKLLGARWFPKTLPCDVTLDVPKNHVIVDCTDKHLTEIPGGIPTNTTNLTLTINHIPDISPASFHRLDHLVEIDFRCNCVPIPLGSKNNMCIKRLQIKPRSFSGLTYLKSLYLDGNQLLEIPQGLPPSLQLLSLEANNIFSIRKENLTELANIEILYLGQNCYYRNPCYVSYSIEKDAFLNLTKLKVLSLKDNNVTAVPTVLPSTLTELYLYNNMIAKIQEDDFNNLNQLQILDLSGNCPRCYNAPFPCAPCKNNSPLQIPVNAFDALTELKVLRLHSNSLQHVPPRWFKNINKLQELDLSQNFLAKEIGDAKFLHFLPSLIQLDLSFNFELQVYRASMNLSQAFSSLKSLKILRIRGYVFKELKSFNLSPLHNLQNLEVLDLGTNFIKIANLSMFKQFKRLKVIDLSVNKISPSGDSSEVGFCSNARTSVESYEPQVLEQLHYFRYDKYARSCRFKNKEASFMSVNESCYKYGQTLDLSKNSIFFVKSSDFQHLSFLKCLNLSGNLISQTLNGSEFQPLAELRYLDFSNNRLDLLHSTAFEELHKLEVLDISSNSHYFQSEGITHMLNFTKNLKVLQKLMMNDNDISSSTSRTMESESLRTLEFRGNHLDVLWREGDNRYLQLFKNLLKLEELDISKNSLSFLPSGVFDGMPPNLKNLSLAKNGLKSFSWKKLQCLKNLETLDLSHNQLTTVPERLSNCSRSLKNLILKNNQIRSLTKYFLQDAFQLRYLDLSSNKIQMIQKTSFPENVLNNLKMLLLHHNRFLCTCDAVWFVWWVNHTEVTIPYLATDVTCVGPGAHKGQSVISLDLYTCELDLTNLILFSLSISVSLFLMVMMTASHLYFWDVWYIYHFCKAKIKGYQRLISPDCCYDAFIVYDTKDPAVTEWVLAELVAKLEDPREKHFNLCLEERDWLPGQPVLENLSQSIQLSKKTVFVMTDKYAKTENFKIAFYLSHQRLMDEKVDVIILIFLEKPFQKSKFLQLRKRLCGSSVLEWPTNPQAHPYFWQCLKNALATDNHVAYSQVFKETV
Assay Protocol: TLR7/8/9 Inhibition Reporter Assays
pIC50: −log10 of the molar value.
Quantity Name: pIC50

Cc1c(-c2[nH]c3cnc(C4CCC(N5CC(CO)(CO)C5)CC4)c(F)c3c2C(C)C)cn2ncnc2c1C (centres undefined) [US11912703, Example 266] :: 7.59
COc1cc(-c2[nH]c3cnc(N4CCN(C5COC5)CC4)cc3c2C(C)C)cn2ncnc12 [US11912703, Example 303] :: 7.72

P: CNC(=O)CN1CCN(c2cc3c(C(C)C)c(-c4cc(OC)c5ncnn5c4)[nH]c3cn2)CC1 [US11912703, Example 288]
Q: CNCC(=O)N1CCN(c2cc3c(C(C)C)c(-c4cc(OC)c5ncnn5c4)[nH]c3cn2)CC1 [US11912703, Example 289]
Select one: P or Q . Criterion: greater recorded pIC50. Selection: enter the item's label.
Q
(Q: 8.43, P: 7.57)

Values were extracted from BindingDB's records for patent US11912703.
